- Tested on: E. coli BW25113 overexpression strains (ASKA plasmids)
- Method Description: Minimum inhibitory concentration (MIC), serial broth dilution, single-gene overexpression strains vs empty-vector control
- Type: cell-based, Escherichia coli
- Test Context: overexpression strain yhbJ; MIC of overexpression strain / MIC of empty-plasmid control; broth dilution, MS medium, 100 µM IPTG, 30 °C, 20-24 h, OD600, 3 replicates
Answer each item with its documented Relative MIC.
When you answer, write just the number.

Ask: Return Relative MIC measured with E. coli BW25113 overexpression strains (ASKA plasmids) given this sequence: RFRPPIRRPPIRPPFYPPFRPPIRPPIFPPIRPPFRPPLGPFP [BAC5, Bactenecin 5, antimicrobial peptide from bovine neutrophils; cluster C4]
Result: 0.8

Ask: What Relative MIC appears in the records for this sequence with E. coli BW25113 overexpression strains (ASKA plasmids)? FLGKVFKLASKVFKAVFGKV [R8, synthetic AMP (from linguistic model); cluster C1]
Result: 1

Ask: Recall the recorded Relative MIC for TSSPPAAVVVRRRRRRRRRRRRRRRRRRR [PROA, Protamine, source herring, purchased from Sigma-Aldrich; cluster C3] with E. coli BW25113 overexpression strains (ASKA plasmids) and state it.
Result: 0.69

----------
Could you please report measured Relative change in MIC (MIC of the AMP-adpated line / MIC of the ancestral strain) for the items listed next?
- Test system: AMP-evolved E. coli lines
- Method Description: Cross-resistance / collateral sensitivity: relative MIC change of 38 laboratory-evolved AMP-resistant lines vs parental strain
- Assay type: cell-based, Escherichia coli
- Test Context: AMP-adapted line LL37_1; measured here
- Procedure: Here, we extended this dataset by measuring susceptibility changes of the same evolved lines to four additional AMPs using identical protocols to represent AMPs from all four clusters (Supplementary Fig. 15a, see also Methods). […] Supplementary Figure 15. […] Relative change in MIC was determined for each evolved line by comparing its MIC to the ancestral cell line (control). […]
Would you mind answering with just the numeric figure?

Ask: Can you look up the measured Relative change in MIC (MIC of the AMP-adpated line / MIC of the ancestral strain) of RRRPRPPYLPRPRPPPFFPPRLPPRIPPGFPPRFPPRFP [PR39, PR-39, cathelicidin, source pig; cluster C4] for me?
Result: 1.1

Ask: Any idea what Relative change in MIC (MIC of the AMP-adpated line / MIC of the ancestral strain) was measured for RFRPPIRRPPIRPPFYPPFRPPIRPPIFPPIRPPFRPPLGPFP [BAC5, Bactenecin 5, antimicrobial peptide from bovine neutrophils; cluster C4] ?
Result: 0.915

Ask: What value of Relative change in MIC (MIC of the AMP-adpated line / MIC of the ancestral strain) has been recorded for this entry: TSSPPAAVVVRRRRRRRRRRRRRRRRRRR [PROA, Protamine, source herring, purchased from Sigma-Aldrich; cluster C3]
Result: 0.7044

Ask: What measured Relative change in MIC (MIC of the AMP-adpated line / MIC of the ancestral strain) goes with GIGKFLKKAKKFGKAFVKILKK [PEX, Pexiganan, synthetic Magainin derivative; disrupts cell membrane; cluster C2] ?
Result: 1.584

----------
- System: E. coli BW25113 overexpression strains (ASKA plasmids)
- Method Description: Minimum inhibitory concentration (MIC), serial broth dilution, single-gene overexpression strains vs empty-vector control
- Format: cell-based, Escherichia coli
- Test Context: overexpression strain nikB; MIC of overexpression strain / MIC of empty-plasmid control; broth dilution, MS medium, 100 µM IPTG, 30 °C, 20-24 h, OD600, 3 replicates
Measure Name: Relative MIC

Ask: Fill blank: measured Relative MIC of the sequence ILPWKWPWWPWRR [IND, Indolicidin, antimicrobial peptide from bovine neutrophils; cluster C3] is ____.
Result: 0.76

Ask: # lookup: Relative MIC of TSSPPAAVVVRRRRRRRRRRRRRRRRRRR [PROA, Protamine, source herring, purchased from Sigma-Aldrich; cluster C3]
Result: <0.71

Ask: Relative MIC for SWLSKTAKKLENSAKKRISEGIAIAIQGGPR [CP1, Cecropin P1, antimicrobial peptide, source Ascaris suum; disrupts cell membrane; cluster C1] ?
Result: 0.8

Ask: Need Relative MIC of KTKKKFLKKT [PXB, Polymyxin B, from Bacillus polymyxa, purchased from Sigma-Aldrich; disrupts cell membrane; cluster C1] , thanks.
Result: 1

Ask: Please look up its Relative MIC: RWCFRVCYRGICYRKCR [TPII, Tachyplesin II, antimicrobial peptide from Japanese horseshoe crab; disrupts cell membrane; cluster C1]
Result: 0.8

Ask: Which Relative MIC value is on record for GWGSFFKKAAHVGKHVGKAALTHYL [PLEU, Pleurocidin, antimicrobial peptide from Pleuronectes americanus; cluster C2] ?
Result: 0.8

Ask: Which value of Relative MIC has been reported for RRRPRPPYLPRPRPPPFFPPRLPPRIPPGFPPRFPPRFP [PR39, PR-39, cathelicidin, source pig; cluster C4] in the records?
Result: 0.8
